# key: entry, value: pKd
- tgt: T1, active BoNT/G holotoxin (Clostridium botulinum, UniProt Q60393 2-1297)
- T1 sequence: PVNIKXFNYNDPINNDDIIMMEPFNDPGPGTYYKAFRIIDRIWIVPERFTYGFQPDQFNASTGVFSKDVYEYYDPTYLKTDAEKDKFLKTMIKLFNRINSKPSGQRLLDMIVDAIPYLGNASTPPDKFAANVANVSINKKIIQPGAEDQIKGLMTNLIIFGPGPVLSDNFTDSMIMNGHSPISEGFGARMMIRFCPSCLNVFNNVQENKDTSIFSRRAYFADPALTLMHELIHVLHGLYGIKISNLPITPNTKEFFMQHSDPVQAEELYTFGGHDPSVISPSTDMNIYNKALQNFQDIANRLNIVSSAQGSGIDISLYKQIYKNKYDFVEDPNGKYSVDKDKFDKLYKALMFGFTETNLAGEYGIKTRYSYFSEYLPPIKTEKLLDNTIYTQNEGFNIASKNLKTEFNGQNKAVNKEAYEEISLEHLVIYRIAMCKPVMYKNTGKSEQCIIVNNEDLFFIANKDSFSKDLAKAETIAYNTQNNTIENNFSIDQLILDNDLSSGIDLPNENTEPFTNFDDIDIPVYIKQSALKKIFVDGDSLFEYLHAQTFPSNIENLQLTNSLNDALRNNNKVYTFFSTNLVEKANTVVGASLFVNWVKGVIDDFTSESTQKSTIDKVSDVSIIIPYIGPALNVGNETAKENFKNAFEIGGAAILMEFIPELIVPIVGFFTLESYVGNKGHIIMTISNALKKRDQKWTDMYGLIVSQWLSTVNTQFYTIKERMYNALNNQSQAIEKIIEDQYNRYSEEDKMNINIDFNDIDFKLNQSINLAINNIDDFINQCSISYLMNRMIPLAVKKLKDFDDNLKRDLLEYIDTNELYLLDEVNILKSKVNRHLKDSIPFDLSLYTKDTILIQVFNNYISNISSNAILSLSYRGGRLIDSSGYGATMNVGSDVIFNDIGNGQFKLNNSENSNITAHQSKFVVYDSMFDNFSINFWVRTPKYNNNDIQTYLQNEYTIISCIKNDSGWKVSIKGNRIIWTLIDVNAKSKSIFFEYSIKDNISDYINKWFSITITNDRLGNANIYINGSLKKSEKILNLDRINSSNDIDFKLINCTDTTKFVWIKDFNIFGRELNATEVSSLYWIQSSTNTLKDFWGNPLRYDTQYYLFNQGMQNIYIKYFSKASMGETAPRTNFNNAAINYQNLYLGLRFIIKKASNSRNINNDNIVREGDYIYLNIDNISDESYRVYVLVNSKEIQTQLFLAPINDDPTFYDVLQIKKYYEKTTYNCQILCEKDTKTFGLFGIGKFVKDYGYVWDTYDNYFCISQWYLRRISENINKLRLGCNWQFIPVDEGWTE
- assay-text: KinExA, IgG
pKd: −log10 of the molar value.

{"binder": "hu6G6 IgG (antibody, V domains shown) VH: QVQLVQSGAEVKKPGASVKLSCKASGFNIKDTYMHWVRQAPGQGLEWIGRIDPANGNTKYDPKFQGRATITADTSINTAYLELSRLRSDDTAVYYCASGPNYYGTTWFAYWGQGTTVTVSS VL: EIVLTQSPSTLSASVGDRVTITCRASHGISNYLAWYQQKPGRAPKLLIYKASTLHIGVPSRFSGSGSGTEFALTISSLQPDDFSTYYCQQYNSYLPHTFGQGTRLEIKR", "pKd": 8.08}
{"binder": "Hu6G7.2 IgG (antibody, V domains shown) VH: QVQLVQSGAEVKKPGASVKVSCKASDYSFTDYNIYWVRQTPGQGLEWIGYIDPYNGGTSYNQKFKGRATLTVDKSISTAYMELSRLRSDDTAVYYCALYGYDPDYTEYWGQGTTLTVSS VL: DIVLTQSPASMAVSPGQRVTITCSASSSVSYLHWFQQKPGQSPKLWIYSTSNLASGVPARFSGSGSGTDYTLTINPMEAEDTATYYCQQRSSYPYTFGQGTKLEIKR", "pKd": 10.29}
{"binder": "hu6G11 IgG (antibody, V domains shown) VH: QVQLVQSGAEVAKPGASVKMSCKASGYTFTSYWMHWVRQAPGQGLEWIGYINPSTGYTEYNQKFKDRATLTADKSTSTAYMELSSLRSEDTAVYYCARGYFSFAYWGQGTLVTVSS VL: DIVMTQSPSSLSASVRDRVTITCQASHDIKNFLNWFQQKPGKAPKLLVYDASNLQVGVPSRFSASGYGTEFTLTISSLQPEDFATYYCQQANSFPRTFGQGTKVEIKR", "pKd": 9.27}
